Reported values of cell viability of combination for individual entries
# Tested on: WHIM30 (cells of a triple-negative basal-like breast cancer xenograft)
# TEST_METHOD_NOTES: cell viability of combination (% of vehicle); higher = less cytotoxic
# PROTOCOL_CONDITIONS: 1 µM; 72 h; partner dose: 10 nM

{"columns": ["COMPOUND", "cell viability of combination"],
 "data": [
  ["CN(C)c1ccc(C(=C2C=CC(=[N+](C)C)C=C2)c2ccc(N(C)C)cc2)cc1.[Cl-] [Crystal Violet] + CC(C)C[C@H](NC(=O)[C@H](CCc1ccccc1)NC(=O)CN1CCOCC1)C(=O)N[C@@H](Cc1ccccc1)C(=O)N[C@@H](CC(C)C)C(=O)[C@@]1(C)CO1 [Carfilzomib]", 6],
  ["C=C1C(=CC=C2CCCC3(C)C2CCC3C(C)CCCC(C)(C)O)CC(O)CC1O (configuration not stated) [Calcitriol] + CC(C)C[C@H](NC(=O)[C@H](CCc1ccccc1)NC(=O)CN1CCOCC1)C(=O)N[C@@H](Cc1ccccc1)C(=O)N[C@@H](CC(C)C)C(=O)[C@@]1(C)CO1 [Carfilzomib]", 19.1],
  ["CNCCC(Oc1cccc2ccccc12)c1cccs1.Cl (configuration not stated) [Duloxetine HCl] + CC(C)C[C@H](NC(=O)[C@H](CCc1ccccc1)NC(=O)CN1CCOCC1)C(=O)N[C@@H](Cc1ccccc1)C(=O)N[C@@H](CC(C)C)C(=O)[C@@]1(C)CO1 [Carfilzomib]", 16.1],
  ["CCOc1nc2cccc(C(=O)OC(C)OC(=O)OC3CCCCC3)c2n1Cc1ccc(-c2ccccc2-c2nn[nH]n2)cc1 (configuration not stated) [Candesartan Cilexetil] + CC(C)C[C@H](NC(=O)[C@H](CCc1ccccc1)NC(=O)CN1CCOCC1)C(=O)N[C@@H](Cc1ccccc1)C(=O)N[C@@H](CC(C)C)C(=O)[C@@]1(C)CO1 [Carfilzomib]", 18.9],
  ["COc1cc2nccc(Oc3ccc(NC(=O)C4(C(=O)Nc5ccc(F)cc5)CC4)cc3)c2cc1OC.O=C(O)CC(O)C(=O)O [Cabozantinib malate (XL184)] + CC(C)C[C@H](NC(=O)[C@H](CCc1ccccc1)NC(=O)CN1CCOCC1)C(=O)N[C@@H](Cc1ccccc1)C(=O)N[C@@H](CC(C)C)C(=O)[C@@]1(C)CO1 [Carfilzomib]", 16.1],
  ["CCOc1cc2ncc(C#N)c(Nc3ccc(OCc4ccccn4)c(Cl)c3)c2cc1NC(=O)C=CCN(C)C [Neratinib (HKI-272)] + CC(C)C[C@H](NC(=O)[C@H](CCc1ccccc1)NC(=O)CN1CCOCC1)C(=O)N[C@@H](Cc1ccccc1)C(=O)N[C@@H](CC(C)C)C(=O)[C@@]1(C)CO1 [Carfilzomib]", 17.5],
  ["Cc1ccc(NC(=O)c2ccc(CN3CCN(C)CC3)cc2)cc1Nc1nc(-c2cccnc2)cs1 [Masitinib (AB1010)] + CC(C)C[C@H](NC(=O)[C@H](CCc1ccccc1)NC(=O)CN1CCOCC1)C(=O)N[C@@H](Cc1ccccc1)C(=O)N[C@@H](CC(C)C)C(=O)[C@@]1(C)CO1 [Carfilzomib]", 28.7]
]}
